Listed molecules paired with reported inhibition at 10 µM
Biological target: UniProtKB Q12809
Sequence (Q12809 whole entry): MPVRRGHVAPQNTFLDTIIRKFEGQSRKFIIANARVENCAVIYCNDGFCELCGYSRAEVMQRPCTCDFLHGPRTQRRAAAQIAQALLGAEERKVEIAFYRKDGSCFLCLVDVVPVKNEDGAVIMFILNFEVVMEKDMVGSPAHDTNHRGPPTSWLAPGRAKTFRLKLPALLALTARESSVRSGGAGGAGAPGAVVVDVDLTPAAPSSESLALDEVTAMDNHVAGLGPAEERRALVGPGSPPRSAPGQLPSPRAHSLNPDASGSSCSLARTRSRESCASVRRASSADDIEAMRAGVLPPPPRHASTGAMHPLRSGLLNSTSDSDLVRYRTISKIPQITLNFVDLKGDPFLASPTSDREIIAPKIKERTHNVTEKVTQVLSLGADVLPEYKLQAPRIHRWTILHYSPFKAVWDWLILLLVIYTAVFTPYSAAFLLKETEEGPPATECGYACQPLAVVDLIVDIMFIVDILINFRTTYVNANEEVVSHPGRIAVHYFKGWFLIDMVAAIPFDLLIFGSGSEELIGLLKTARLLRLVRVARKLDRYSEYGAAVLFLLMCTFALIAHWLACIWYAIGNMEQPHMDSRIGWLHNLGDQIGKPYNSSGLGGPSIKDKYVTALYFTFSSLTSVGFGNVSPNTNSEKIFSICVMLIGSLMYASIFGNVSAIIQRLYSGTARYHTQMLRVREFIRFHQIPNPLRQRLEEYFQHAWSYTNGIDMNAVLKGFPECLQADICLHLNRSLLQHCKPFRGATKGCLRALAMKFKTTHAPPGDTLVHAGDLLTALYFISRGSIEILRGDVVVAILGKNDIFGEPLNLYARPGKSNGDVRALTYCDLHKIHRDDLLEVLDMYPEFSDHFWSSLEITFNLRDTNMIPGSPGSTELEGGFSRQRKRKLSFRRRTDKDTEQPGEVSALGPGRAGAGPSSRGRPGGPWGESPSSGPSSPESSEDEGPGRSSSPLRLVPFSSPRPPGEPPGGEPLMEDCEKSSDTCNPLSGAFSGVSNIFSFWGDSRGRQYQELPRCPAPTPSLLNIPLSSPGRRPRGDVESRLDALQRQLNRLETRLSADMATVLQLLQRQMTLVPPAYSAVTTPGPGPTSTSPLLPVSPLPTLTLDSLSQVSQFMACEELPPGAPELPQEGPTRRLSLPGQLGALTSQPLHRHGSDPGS
Assay: Herg-binding (3H-Astemizol)
Settings: probe 3H-astemizole
Dear colleague, please return just the value in %, with no unit written.

chem.smiles: CC(C)N1CCC(c2ccc(-c3ccc(C(=O)N4CCCC4)cc3)cn2)CC1.Cl.Cl
assay.target: UniProtKB Q12809
recorded.endpoint: inhibition at 10 µM
result.value: 19
//
chem.smiles: CC(C)N1CCN(Cc2ccc(-c3ccc(C(=O)N(C)C)cc3)cn2)CC1.Cl.Cl
assay.target: UniProtKB Q12809
recorded.endpoint: inhibition at 10 µM
result.value: 7

Let us examine a further case.
Quick check: inhibition at 10 µM of Cc1cc(-c2ccc(CC3CCN(C4CCC4)CC3)nc2)ccn1.Cl.Cl ?
7

====

Biological target: CYP1A (Homo sapiens, UniProt P05177)
Sequence (P05177 2-516): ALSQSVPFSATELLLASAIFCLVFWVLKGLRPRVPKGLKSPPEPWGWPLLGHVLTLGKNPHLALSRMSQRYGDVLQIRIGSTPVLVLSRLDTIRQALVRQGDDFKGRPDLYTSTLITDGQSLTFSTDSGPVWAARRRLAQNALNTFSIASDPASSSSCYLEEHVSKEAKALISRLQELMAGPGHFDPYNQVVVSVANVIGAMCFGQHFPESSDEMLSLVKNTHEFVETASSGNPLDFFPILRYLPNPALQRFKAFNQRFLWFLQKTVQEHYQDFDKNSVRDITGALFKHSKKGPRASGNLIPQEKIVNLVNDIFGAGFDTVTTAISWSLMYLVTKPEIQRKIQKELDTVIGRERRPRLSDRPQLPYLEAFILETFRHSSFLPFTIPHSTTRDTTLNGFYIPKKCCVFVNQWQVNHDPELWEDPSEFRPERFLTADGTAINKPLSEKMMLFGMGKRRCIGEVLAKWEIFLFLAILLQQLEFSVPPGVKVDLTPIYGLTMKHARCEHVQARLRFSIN
Assay: CYP1A inhibition
pIC50: −log10 of the molar value.
recorded.endpoint: pIC50

chem.smiles: CC(C)N1CCC(c2ccc(-c3ccc(C(=O)N4CCCC4)cc3)cn2)CC1.Cl.Cl
pIC50: < 4.60

Quick check: pIC50 of CC(C)N1CCN(Cc2ccc(-c3ccc(C(=O)N(C)C)cc3)cn2)CC1.Cl.Cl ?
< 4.60

Quick check: pIC50 of Cc1cc(-c2ccc(CC3CCN(C4CCC4)CC3)nc2)ccn1.Cl.Cl ?
< 4.60

====

Target: CYP2C9 (Homo sapiens)
Sequence (P11712 whole entry): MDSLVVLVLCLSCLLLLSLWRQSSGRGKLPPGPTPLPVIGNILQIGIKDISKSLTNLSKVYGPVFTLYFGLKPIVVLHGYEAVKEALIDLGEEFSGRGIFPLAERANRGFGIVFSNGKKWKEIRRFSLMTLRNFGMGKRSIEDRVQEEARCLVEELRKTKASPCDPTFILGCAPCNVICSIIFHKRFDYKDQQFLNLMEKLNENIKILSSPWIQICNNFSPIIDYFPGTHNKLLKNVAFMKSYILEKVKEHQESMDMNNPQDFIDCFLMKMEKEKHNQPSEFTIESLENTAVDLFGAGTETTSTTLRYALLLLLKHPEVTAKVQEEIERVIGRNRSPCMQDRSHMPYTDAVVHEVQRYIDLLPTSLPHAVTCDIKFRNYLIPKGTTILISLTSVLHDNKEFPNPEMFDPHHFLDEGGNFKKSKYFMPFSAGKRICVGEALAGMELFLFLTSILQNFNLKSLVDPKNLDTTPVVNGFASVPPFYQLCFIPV
Test: CYP2C9 inhibition
Type: in vitro ADME
Conditions: read-out: CYP2C9inh [IC50]
Listed compounds paired with reported IC50

chem.smiles: CC(C)N1CCN(Cc2ccc(-c3ccc(C(=O)N(C)C)cc3)cn2)CC1.Cl.Cl
result.value: > 25 µM

chem.smiles: Cc1cc(-c2ccc(CC3CCN(C4CCC4)CC3)nc2)ccn1.Cl.Cl
result.value: > 25 µM

Give recorded IC50 with CYP2C9 (Homo sapiens) for the following compound: CC(C)N1CCC(c2ccc(-c3ccc(C(=O)N4CCCC4)cc3)cn2)CC1.Cl.Cl
> 25 µM
